meta.source: the Human Domainome abundance scans (Beltran et al. 2025)

B1: Mineralocorticoid receptor, residues 600 to 675; numbered along this chain, P08235 (parent)
chain: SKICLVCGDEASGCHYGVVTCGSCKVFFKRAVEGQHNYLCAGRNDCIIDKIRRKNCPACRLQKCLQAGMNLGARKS

Variants of: B1
Experiment: abundance fitness (aPCA) (normalised: wild type 0, dead -1); higher = more abundant; growth selection in yeast, the domain comes from the species named
Details: Homo sapiens
Group membership follows abundance fitness per the scheme lower band = under -0.2, central band = from -0.2 up to -0.03, upper band = -0.03 and over

INPUT: // bin(item) where item = L5C
OUTPUT: central band

INPUT: // bin(item) where item = V19P
OUTPUT: upper band

INPUT: // bin(item) where item = G34I
OUTPUT: central band

INPUT: // bin(item) where item = Y16W
OUTPUT: upper band

INPUT: // bin(item) where item = G34K
OUTPUT: central band

INPUT: // bin(item) where item = V18H
OUTPUT: lower band

INPUT: // bin(item) where item = G17D
OUTPUT: central band

INPUT: // bin(item) where item = C46P
OUTPUT: lower band

INPUT: // bin(item) where item = V19A
OUTPUT: upper band

INPUT: // bin(item) where item = N44K
OUTPUT: upper band

INPUT: // bin(item) where item = G42R
OUTPUT: central band

INPUT: // bin(item) where item = R53C
OUTPUT: central band

INPUT: // bin(item) where item = D49K
OUTPUT: central band

INPUT: // bin(item) where item = F27W
OUTPUT: lower band

INPUT: // bin(item) where item = E10G
OUTPUT: upper band

INPUT: // bin(item) where item = E33M
OUTPUT: central band

INPUT: // bin(item) where item = L65G
OUTPUT: central band

INPUT: // bin(item) where item = C4H
OUTPUT: lower band
